Target: hERG channel (Homo sapiens (Human), UniProt Q12809)
Sequence (Q12809 whole entry): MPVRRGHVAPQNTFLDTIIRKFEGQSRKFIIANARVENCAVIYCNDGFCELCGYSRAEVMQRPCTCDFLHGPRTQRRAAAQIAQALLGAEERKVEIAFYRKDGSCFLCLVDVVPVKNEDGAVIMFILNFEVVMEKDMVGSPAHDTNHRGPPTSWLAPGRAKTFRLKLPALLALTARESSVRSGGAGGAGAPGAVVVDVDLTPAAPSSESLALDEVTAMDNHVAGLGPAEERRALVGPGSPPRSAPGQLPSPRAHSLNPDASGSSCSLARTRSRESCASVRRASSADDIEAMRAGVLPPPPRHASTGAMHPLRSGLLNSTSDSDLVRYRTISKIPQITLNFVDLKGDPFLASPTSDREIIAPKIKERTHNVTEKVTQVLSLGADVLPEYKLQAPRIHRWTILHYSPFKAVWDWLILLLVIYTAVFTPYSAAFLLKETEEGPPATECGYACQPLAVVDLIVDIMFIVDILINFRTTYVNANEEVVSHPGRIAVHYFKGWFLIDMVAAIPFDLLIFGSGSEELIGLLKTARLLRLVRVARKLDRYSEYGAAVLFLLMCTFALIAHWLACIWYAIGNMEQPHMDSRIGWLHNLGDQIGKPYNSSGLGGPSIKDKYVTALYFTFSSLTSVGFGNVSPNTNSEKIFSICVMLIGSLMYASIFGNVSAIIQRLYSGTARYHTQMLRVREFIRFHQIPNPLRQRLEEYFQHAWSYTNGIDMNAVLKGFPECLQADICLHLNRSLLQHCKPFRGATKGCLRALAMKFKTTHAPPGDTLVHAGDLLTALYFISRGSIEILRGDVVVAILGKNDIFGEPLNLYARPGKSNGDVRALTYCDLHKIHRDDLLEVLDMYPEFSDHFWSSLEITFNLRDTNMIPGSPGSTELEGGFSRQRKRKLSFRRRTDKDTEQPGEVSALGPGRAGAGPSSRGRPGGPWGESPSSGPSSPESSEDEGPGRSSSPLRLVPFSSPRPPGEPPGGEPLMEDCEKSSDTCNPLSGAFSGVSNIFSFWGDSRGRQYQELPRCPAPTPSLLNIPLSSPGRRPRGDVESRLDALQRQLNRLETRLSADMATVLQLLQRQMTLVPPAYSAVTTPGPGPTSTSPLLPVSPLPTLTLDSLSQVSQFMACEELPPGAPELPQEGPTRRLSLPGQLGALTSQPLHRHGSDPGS
Experiment: hERG-Channel Assay (Assay 2), whole-cell patch clamp in HEK293 cells stably transfected with hERG cDNA
Type: cell-based
Conditions: human, HEK293 cells stably transfected with hERG cDNA, pH 7.4, 35° C.
I would appreciate it if you labelled entries t when inhibition at 10 µM is 20% or higher, otherwise f.

> print(dat)
                                   compound                                    target  group
1  C[C@@H]1C[C@@]2(Cc3ccc(C#N)cc3[C@]23N=C(N)N(CC2(F)CCOCC2)C3=O)C[C@H](C)[C@H]1O  hERG channel (Homo sapiens (Human), UniProt Q12809)      f
2  C[C@@H]1C[C@@]2(Cc3ccc(C#N)cc3[C@]23N=C(N)N(CC2CC(F)(F)C2)C3=O)C[C@H](C)[C@H]1O.O=C(O)C(F)(F)F  hERG channel (Homo sapiens (Human), UniProt Q12809)      t
3  CC[C@@H]1C[C@@]2(Cc3ccc(C#N)cc3[C@]23N=C(N)N(CC(C)(C)F)C3=O)C[C@H](C)[C@H]1O  hERG channel (Homo sapiens (Human), UniProt Q12809)      f
4  COC1CCC2(CC1)Cc1ccc(C#CC3CC3)cc1C21N=C(N)N(Cc2ncco2)C1=O (stereo not drawn) [drawing 13, reference compound]  hERG channel (Homo sapiens (Human), UniProt Q12809)      t
5  CC[C@@H]1C[C@]2(CC[C@H]1O)Cc1ccc(C#N)cc1[C@]21N=C(N)N(CC(C)(C)F)C1=O  hERG channel (Homo sapiens (Human), UniProt Q12809)      f
6  C[C@@H]1CC2(Cc3ccc(Cl)cc3[C@]23N=C(N)N(Cc2ncccn2)C3=O)C[C@H](C)[C@H]1O (stereo partly drawn)  hERG channel (Homo sapiens (Human), UniProt Q12809)      f
7  COC1CCC2(CC1)Cc1ccc(C#CC3CC3)cc1C21N=C(N)N(Cc2cncnc2)C1=O (stereo not drawn) [reference compound]  hERG channel (Homo sapiens (Human), UniProt Q12809)      t
8  CC[C@@H]1C[C@@]2(Cc3ccc(C#N)cc3[C@]23N=C(N)N(C[C@H]2COCCO2)C3=O)C[C@H](C)[C@H]1O  hERG channel (Homo sapiens (Human), UniProt Q12809)      f

----------
Documented IC50 across a set of compounds
Tested on: human hematopoetic U937 cell line
Assay: In Vitro Phospholipidosis Assay (Assay 3), Nile red staining
Type: cell-based
Conditions: first effect concentration; U937 cells, 48 h; read-out: Phospholipidosis FEC IC50 μM (assay 3)
Procedure: In Vitro Phospholipidosis Assay (Assay 3) The phospholipidogenic potential of test compounds was assayed using the human hematopoetic U937 cell line. […] For Nile red staining of the 0.5 mL non-fixed cell samples, 50 μL of a ready to use Nile red solution (10 μg/mL) were added per sample. […] For the viability measurement, 12.5 μL of the ready to use PI solution (10 μg/mL) were added to the 0.5 mL non-fixed cell suspension. […]
endpoint: IC50 (µM)

> print(dat)
                                   compound                             target  endpoint  observed
1  COC1CCC2(CC1)Cc1ccc(C#N)cc1[C@]21N=C(N)N(C)C1=O (some centres unmarked) [drawing 18, reference compound]  human hematopoetic U937 cell line      IC50       400
2  COC1CCC2(CC1)Cc1ccc(C#N)cc1[C@]21N=C(N)N(C)C1=O (some centres unmarked) [drawing 15, reference compound]  human hematopoetic U937 cell line      IC50       400

----------
Biological target: hERG channel (Homo sapiens (Human), UniProt Q12809)
Experiment: hERG-Channel Assay (Assay 2), whole-cell patch clamp in HEK293 cells stably transfected with hERG cDNA
Format: cell-based
Settings: human, HEK293 cells stably transfected with hERG cDNA, pH 7.4, 35° C.
Documented inhibition at 10 µM across a set of compounds
endpoint: inhibition at 10 µM

> print(dat)
                                    compound                                    target             endpoint  observed
 1  C[C@@H]1C[C@@]2(Cc3ccc(C#N)cc3[C@]23N=C(N)N(CC2CC2)C3=O)C[C@H](C)[C@H]1O  hERG channel (Homo sapiens (Human), UniProt Q12809)  inhibition at 10 µM       33%
 2  COC1CCC2(CC1)Cc1ccc(Cl)cc1[C@]21N=C(N)N(C)C1=O (some centres unmarked) [reference compound]  hERG channel (Homo sapiens (Human), UniProt Q12809)  inhibition at 10 µM       58%
 3  C[C@H]1C[C@@]2(CC[C@@H]1O)Cc1ccc(C#N)cc1[C@]21N=C(N)N(CC2CC(F)(F)C2)C1=O  hERG channel (Homo sapiens (Human), UniProt Q12809)  inhibition at 10 µM       12%
 4  COCCCOc1ccc2c(c1)C1(N=C(N)N(CC(F)F)C1=O)[C@]1(CC[C@H](OC)CC1)C2 (some centres unmarked) [reference compound]  hERG channel (Homo sapiens (Human), UniProt Q12809)  inhibition at 10 µM       36%
 5  C[C@@H]1C[C@@]2(Cc3ccc(C#N)cc3[C@]23N=C(N)N(CCC(F)(F)F)C3=O)C[C@H](C)[C@H]1O  hERG channel (Homo sapiens (Human), UniProt Q12809)  inhibition at 10 µM       13%
 6  C[C@@H]1C[C@@]2(Cc3ccc(C#N)cc3[C@]23N=C(N)N(CC(C)(C)F)C3=O)C[C@H](C)[C@H]1O  hERG channel (Homo sapiens (Human), UniProt Q12809)  inhibition at 10 µM      4.5%
 7  CO[C@H]1CC[C@]2(CC1)Cc1ccc(OCC3CC3)cc1C21N=C(N)N(CCC(F)(F)F)C1=O (some centres unmarked) [reference compound]  hERG channel (Homo sapiens (Human), UniProt Q12809)  inhibition at 10 µM       87%
 8  COC1CCC2(CC1)Cc1ccc(C#N)cc1[C@]21N=C(N)N(C)C1=O (some centres unmarked) [drawing 10, reference compound]  hERG channel (Homo sapiens (Human), UniProt Q12809)  inhibition at 10 µM       90%
 9  CO[C@H]1CC[C@]2(CC1)Cc1ccc(CCC(C)C)cc1C21N=C(N)N(CC(F)(F)F)C1=O (some centres unmarked) [reference compound]  hERG channel (Homo sapiens (Human), UniProt Q12809)  inhibition at 10 µM       89%
10  Cc1cc(CN2C(=O)[C@]3(N=C2N)c2cc(C#N)ccc2C[C@@]32C[C@@H](C)[C@H](O)[C@@H](C)C2)ccn1.O=C(O)C(F)(F)F  hERG channel (Homo sapiens (Human), UniProt Q12809)  inhibition at 10 µM      1.4%
11  C[C@H]1C[C@@]2(CC[C@@H]1O)Cc1ccc(-c3cccnc3)cc1[C@]21N=C(N)N(Cc2ncccn2)C1=O  hERG channel (Homo sapiens (Human), UniProt Q12809)  inhibition at 10 µM       15%
12  C[C@@H]1C[C@@]2(Cc3ccc(C#N)cc3[C@]23N=C(N)N(CCc2ccncc2)C3=O)C[C@H](C)[C@H]1O.O=C(O)C(F)(F)F  hERG channel (Homo sapiens (Human), UniProt Q12809)  inhibition at 10 µM     15.2%
13  C[C@@H]1C[C@@]2(Cc3ccc(NC(=O)C(C)(C)F)cc3[C@]23N=C(N)N(CC(C)(C)F)C3=O)C[C@H](C)[C@H]1O  hERG channel (Homo sapiens (Human), UniProt Q12809)  inhibition at 10 µM      1.8%
14  C[C@@H]1C[C@@]2(Cc3ccc(-c4cncnc4)cc3[C@]23N=C(N)N(CC(C)(C)F)C3=O)C[C@H](C)[C@H]1O  hERG channel (Homo sapiens (Human), UniProt Q12809)  inhibition at 10 µM       12%

----------
Documented IC50 across a set of molecules
Target: truncated human beta-secretase, BACE1 (amino acids 1-454) (Homo sapiens (Human), UniProt P56817)
Sequence (P56817 22-454): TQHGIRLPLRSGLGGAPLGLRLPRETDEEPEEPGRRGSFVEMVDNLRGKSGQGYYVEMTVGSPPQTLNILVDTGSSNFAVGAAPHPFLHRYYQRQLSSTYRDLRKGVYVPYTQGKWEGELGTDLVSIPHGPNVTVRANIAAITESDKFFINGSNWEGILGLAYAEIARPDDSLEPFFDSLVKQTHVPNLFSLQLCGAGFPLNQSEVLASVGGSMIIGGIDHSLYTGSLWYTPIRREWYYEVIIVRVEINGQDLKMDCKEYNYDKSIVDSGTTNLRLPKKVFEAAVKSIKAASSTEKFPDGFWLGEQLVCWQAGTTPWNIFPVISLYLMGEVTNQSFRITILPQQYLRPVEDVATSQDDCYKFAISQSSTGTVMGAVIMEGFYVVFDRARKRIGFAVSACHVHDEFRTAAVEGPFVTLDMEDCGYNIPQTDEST
Test: BACE1 Assay (Assay 1), fluorescence quench assay
Type: biochemical
Conditions: pH 4.4
Experimental: The substrate was dissolved at 1 mg/ml in DMSO. […] The intensity of fluorescence was regressed against time in order to derive velocities of reaction in all 384 wells. […] IC50 values were calculated by fitting percent control vs. test compound concentration using Assay Explorer®.
endpoint: IC50 (nM)

> print(dat)
                                   molecule  observed
1  C[C@@H]1C[C@@]2(Cc3ccc(C#N)cc3[C@]23N=C(N)N(CC2(F)CCOCC2)C3=O)C[C@H](C)[C@H]1O [Example 4]       2.7
2  COC1CCC2(CC1)Cc1ccc(C#CC3CC3)cc1C21N=C(N)N(Cc2ncco2)C1=O (stereo not shown) [drawing 13, reference compound]       5.1
3  C[C@@H]1C[C@@]2(Cc3ccc(C#N)cc3[C@]23N=C(N)N(CC(C)(C)Cl)C3=O)C[C@H](C)[C@H]1O [Example 3]         3
4  C[C@@H]1C[C@@]2(Cc3ccc(C#N)cc3[C@]23N=C(N)N(CC(C)(C)F)C3=O)C[C@H](C)[C@H]1O [Example 2]      10.3

Origin of measurements: patent US9018391B2
